target: 2-Hydroxyacid oxidase 2 (Rattus norvegicus, UniProt Q07523)
Sequence (Q07523 whole entry): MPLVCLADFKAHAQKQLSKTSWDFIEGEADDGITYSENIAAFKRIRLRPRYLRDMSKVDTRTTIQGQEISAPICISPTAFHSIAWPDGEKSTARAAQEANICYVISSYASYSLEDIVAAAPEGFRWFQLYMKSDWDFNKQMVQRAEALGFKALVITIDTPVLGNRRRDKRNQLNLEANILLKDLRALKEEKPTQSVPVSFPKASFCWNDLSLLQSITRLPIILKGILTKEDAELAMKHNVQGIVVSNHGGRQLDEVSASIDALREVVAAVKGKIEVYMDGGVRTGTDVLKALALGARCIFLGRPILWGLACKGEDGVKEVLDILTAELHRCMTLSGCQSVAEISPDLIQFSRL
Measured pKd, listed per entry.
Hey, just a heads up that pKd is the negative log base 10 of the concentration in molar.

>  <Smiles String>
O=C(O)c1cc(/C=C/C2=CC(=C3C(=O)c4ccccc4C3=O)c3ccccc3O2)ccc1O

>  <Target Or Test System>
2-Hydroxyacid oxidase 2 (Rattus norvegicus, UniProt Q07523)

>  <pKd>
3.34

$$$$

Shift focus to the following entry.
Prompt: Lookup: pKd / 2-Hydroxyacid oxidase 2 (Rattus norvegicus, UniProt Q07523) / CC1(C)C(/C=C/c2ccc(O)c(C(=O)O)c2)=[N+](CCC(=O)O)c2ccc3ccccc3c21
Completion: 5.49
